Give exon inclusion enrichment index for every item shown.
B1: mRNA-splicing (parent)
chain: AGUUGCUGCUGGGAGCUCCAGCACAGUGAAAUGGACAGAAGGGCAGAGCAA

Variants of: B1
Assay: exon inclusion enrichment index; higher = more inclusion; WT1 exon 5 minigene, HEK293
One number for each entry.

>  <sequence>
AGUUAGGGAUGGGAGCUCCAGCACAGUGAAAUGAACAGAAGGGCAGAGCAA [G5A C6G U7G C9A G34A]

>  <reported>
0.00215

$$$$
>  <sequence>
AGUUCACACAGGGAGCUCCAGCACAGCUAAAUGGACAGAAGGGCAGAGCAA [G5C C6A U7C G8A U10A U27C G28U]

>  <reported>
0.0768

$$$$
>  <sequence>
AGUUCUUCUCGGGAGCUAUAGCACAGUGAAAUGGACAGAAGGGCAGAGCAA [G5C C6U G8C C9U U10C C18A C19U]

>  <reported>
0.0905

$$$$
>  <sequence>
AGUUCACACAGGGAGCUCCAGCACAGUGAAAUGGACAGUCGGGCAGAGCAA [G5C C6A U7C G8A U10A A39U A40C]

>  <reported>
0.195

$$$$
>  <sequence>
AGUUUCUUCUGGGAGCUCCAGCACAGUGAAAUGGACAGAAGGGCAGAGCAA [G5U G8U]

>  <reported>
1.33

$$$$

Would you mind giving exon inclusion enrichment index for every variant in the list below?
1. AGUUGACGACGGGAGCUCUUGCACAGUGAAAUGGACAGAAGGGCAGAGCAA [C6A U7C C9A U10C C19U A20U]
2. AGUUGACGACGGGAGCUCCAGCACAGUGAAUGGGACAGAAGGGCAGAGCAA [C6A U7C C9A U10C A31U U32G]

2.13
2.15

Would you mind giving exon inclusion enrichment index for every variant in the list below?
1. AGUUGAAGAAGGGAAGUCCAGCACAGUGAAAUGGACAGAAGGGCAGAGCAA [C6A U7A C9A U10A G15A C16G]
2. AGGCAUAUAUGGGAGCUCCAGCACAGUGAAAUGGACAGAAGGGCAGAGCAA [U3G U4C G5A C6U U7A G8U C9A]

[0.366, 0.122]
